Assign Dmax to each entry below.
# tested-on: SMARCA4 (Homo sapiens, UniProt P51532)
# Sequence (P51532 whole entry): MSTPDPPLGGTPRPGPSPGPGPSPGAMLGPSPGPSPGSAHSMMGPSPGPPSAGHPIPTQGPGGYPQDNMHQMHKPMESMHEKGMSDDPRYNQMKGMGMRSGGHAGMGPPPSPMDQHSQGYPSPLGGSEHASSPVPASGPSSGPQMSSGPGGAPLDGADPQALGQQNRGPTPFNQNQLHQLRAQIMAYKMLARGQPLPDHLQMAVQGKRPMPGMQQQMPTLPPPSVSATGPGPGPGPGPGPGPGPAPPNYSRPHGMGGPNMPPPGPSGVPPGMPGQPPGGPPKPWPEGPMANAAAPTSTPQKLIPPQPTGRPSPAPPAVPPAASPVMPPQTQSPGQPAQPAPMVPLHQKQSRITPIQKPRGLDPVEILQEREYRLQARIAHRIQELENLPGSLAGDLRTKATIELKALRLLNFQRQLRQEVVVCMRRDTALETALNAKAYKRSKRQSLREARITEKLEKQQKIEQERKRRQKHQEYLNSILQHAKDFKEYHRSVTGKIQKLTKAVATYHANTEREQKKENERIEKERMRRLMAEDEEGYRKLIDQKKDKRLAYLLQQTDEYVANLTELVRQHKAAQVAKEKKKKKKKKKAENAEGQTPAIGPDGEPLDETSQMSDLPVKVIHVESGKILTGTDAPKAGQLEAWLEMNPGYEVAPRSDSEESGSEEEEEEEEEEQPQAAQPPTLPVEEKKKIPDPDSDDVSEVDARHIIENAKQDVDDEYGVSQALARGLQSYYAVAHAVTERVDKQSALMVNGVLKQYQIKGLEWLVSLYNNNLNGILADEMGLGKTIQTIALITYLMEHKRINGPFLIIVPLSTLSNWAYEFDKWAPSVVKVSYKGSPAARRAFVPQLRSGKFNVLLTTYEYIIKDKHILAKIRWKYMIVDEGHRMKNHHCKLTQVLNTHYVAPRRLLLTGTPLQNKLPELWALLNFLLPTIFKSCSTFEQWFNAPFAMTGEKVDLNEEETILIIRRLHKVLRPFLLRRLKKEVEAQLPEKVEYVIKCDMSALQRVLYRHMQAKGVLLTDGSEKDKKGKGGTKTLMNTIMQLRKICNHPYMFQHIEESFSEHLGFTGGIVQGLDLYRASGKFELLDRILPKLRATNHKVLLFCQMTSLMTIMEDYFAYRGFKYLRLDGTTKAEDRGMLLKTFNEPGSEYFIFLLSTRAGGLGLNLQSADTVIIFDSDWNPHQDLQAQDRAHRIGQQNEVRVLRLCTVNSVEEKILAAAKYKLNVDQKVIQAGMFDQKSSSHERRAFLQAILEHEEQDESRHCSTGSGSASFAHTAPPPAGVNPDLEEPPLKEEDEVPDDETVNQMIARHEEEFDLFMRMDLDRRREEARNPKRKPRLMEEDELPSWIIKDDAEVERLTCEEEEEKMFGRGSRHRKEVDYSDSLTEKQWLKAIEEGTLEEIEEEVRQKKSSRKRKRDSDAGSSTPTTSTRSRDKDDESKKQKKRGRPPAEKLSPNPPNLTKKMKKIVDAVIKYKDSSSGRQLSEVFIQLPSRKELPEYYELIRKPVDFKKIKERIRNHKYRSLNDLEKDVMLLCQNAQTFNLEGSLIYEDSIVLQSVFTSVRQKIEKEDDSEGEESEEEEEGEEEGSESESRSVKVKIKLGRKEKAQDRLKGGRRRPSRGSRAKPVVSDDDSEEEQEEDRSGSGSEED
# experiment: HiBiT assay for protein degradation, Hela SMARCA4-HiBiT cells (A series)
# Assay type: cell-based
# Set-up: fuse HiBiT to the carboxy terminus of SMARCA2 (Promega CS302365) or SMARCA4 (Promega CS3023225); host or cells: HeLa (CRISPR/Cas9 HiBiT knock-in)
# condition-context: Hela SMARCA4-HiBiT cells, 24 hours treatment; read-out: SMARC A4 Hela HiBit Dmax

For the molecule COCCOCCOCCOC[C@H](NC(=O)[C@@H]1C[C@@H](O)CN1C(=O)[C@@H](n1cc([C@H]2CC[C@H](CN3CCC(c4ccc5c(c4)-n4c(nc(=O)c6c(Cl)cccc64)C5(C)C)CC3)CC2)nn1)C(C)(C)C)c1ccc(-c2scnc2C)cc1 , what Dmax is on record?
< 50%

// Dmax lookup, key: Cc1ncsc1-c1ccc([C@@H](NC(=O)[C@@H]2C[C@@H](O)CN2C(=O)[C@@H](n2cc(C3CC3)nn2)C(C)(C)C)C(=O)N2CCC(N3CCC(c4ccc5c(c4)-n4c(nc(=O)c6c(Br)cccc64)C54CCCCC4)CC3)CC2)cc1
> 90%

----------
# tested-on: SMARCA2 (Homo sapiens, UniProt P51531)
# Sequence (P51531 whole entry): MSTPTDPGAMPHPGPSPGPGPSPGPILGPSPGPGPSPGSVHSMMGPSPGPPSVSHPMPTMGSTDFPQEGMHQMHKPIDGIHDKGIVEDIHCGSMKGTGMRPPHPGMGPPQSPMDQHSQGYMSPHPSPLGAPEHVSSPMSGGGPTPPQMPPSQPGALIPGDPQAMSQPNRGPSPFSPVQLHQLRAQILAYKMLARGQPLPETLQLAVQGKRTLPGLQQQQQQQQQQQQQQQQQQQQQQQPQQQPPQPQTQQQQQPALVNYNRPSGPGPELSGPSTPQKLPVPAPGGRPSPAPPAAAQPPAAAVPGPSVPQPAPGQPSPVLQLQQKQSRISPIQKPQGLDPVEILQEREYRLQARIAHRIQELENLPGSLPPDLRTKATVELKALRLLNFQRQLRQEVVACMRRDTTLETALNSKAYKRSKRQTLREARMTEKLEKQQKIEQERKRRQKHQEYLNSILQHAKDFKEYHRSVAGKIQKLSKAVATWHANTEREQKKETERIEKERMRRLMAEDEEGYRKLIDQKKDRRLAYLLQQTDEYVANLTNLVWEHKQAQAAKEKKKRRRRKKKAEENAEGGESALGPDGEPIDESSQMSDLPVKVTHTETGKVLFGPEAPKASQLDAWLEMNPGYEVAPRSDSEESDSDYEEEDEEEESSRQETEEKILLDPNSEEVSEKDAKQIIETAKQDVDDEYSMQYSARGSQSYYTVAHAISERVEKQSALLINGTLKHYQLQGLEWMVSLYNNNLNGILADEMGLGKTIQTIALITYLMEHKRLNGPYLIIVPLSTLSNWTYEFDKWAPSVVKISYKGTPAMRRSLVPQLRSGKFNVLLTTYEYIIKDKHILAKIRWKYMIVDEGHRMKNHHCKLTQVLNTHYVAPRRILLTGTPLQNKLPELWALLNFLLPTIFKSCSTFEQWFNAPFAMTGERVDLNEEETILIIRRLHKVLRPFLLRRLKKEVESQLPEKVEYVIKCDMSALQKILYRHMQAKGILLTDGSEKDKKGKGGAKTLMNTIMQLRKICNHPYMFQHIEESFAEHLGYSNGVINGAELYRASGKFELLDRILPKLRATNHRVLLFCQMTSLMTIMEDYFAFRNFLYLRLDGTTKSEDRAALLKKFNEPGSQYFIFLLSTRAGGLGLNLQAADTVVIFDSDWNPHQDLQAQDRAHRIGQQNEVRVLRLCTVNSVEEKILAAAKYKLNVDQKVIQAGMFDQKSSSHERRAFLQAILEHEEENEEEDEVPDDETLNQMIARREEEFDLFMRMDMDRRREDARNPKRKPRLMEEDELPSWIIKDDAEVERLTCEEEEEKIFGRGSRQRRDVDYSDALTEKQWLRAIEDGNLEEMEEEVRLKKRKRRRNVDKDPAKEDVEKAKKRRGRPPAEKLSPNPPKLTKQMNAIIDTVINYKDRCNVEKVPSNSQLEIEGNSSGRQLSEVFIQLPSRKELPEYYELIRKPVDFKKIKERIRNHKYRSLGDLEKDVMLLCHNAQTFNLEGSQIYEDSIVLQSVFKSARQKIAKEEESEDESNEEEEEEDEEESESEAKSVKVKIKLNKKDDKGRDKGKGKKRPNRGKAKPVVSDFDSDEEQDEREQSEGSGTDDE
# experiment: HiBit assay in engineered HT1080 CRISPR knock-in cell, 6 hrs (B series), SMARCA2
# Assay type: cell-based
# condition-context: HT1080 CRISPR knock-in cells, 6 hrs incubation; read-out: SMARC A2 HT1080 HiBit DC50
Provide the recorded DC50 for the entries that follow.

DC50 for Cc1ncsc1-c1ccc([C@H](C)NC(=O)[C@@H]2C[C@@H](O)CN2C(=O)[C@@H](NC(=O)C23CC(CN4CCC(c5ccc6c(c5)C(C)(C)c5nc(=O)c7c(Cl)cccc7n5-6)CC4)(C2)C3)C(C)(C)C)cc1 ?
< 100 nM

// lookup DC50 for CC(C)C(C(=O)N1C[C@H](O)C[C@H]1C(=O)N[C@@H](C)c1ccc(-c2ncnn2C)cc1)c1cc(OCCN2CCC(c3ccc4c(c3)C(C)(C)c3nc(=O)c5c(Cl)cccc5n3-4)CC2)no1 (some centres unmarked) [Compound B75]
100 to 500 nM

Find the recorded DC50 belonging to Cc1nc(C)c(-c2ccc([C@H](C)NC(=O)[C@@H]3C[C@@H](O)CN3C(=O)[C@@H](n3cc([C@H]4CC[C@H](CN5CCN(c6ccc7c(c6)-n6c(nc(=O)c8c(Cl)cccc86)C7(C)C)CC5)CC4)nn3)C(C)(C)C)cc2)s1 and report it.
< 100 nM

For the compound shown here, Cc1ncsc1-c1ccc([C@H](C)NC(=O)[C@@H]2C[C@@H](O)CN2C(=O)[C@H](C(C)C)n2cc(C3CCC(c4cccc5c4C(C)(C)c4nc(=O)c6c(Cl)cccc6n4-5)CC3)nn2)cc1 (some centres unmarked) [Compound B137] , give the reported DC50.
< 100 nM

Given the compound Cc1ncsc1-c1ccc([C@H](CC(=O)NCCN2CCC(c3ccc4c(c3)-n3c(nc(=O)c5c(Cl)cccc53)C4(C)C)CC2)NC(=O)[C@@H]2C[C@@H](O)CN2C(=O)[C@@H](NC(=O)C2(F)CC2)C(C)(C)C)cc1 , what is its reported DC50?
100 to 500 nM

Requested field: DC50. Item: Cc1ncsc1-c1ccc([C@H](C)NC(=O)[C@@H]2C[C@@H](O)CN2C(=O)[C@H](C(C)C)n2cc(C3CCC(c4cccc5c4C(C)(C)c4nc(=O)c6c(Cl)cccc6n4-5)CC3)nn2)cc1 (some centres unmarked) [Compound B161]
< 100 nM

Which DC50 value is on record for C[C@H](NC(=O)[C@@H]1C[C@@H](O)CN1C(=O)[C@@H](n1cc([C@H]2CC[C@H](CN3CCN(c4ccc5c(c4)-n4c(nc(=O)c6c(Cl)cccc64)C5(C)C)CC3)CC2)nn1)C(C)(C)C)c1ccc(-c2ccn[nH]2)cc1 ?
< 100 nM

# input compound: Cc1ncsc1-c1ccc([C@H](C)NC(=O)[C@@H]2C[C@@H](O)CN2C(=O)[C@@H](NC(=O)CCCn2cc(-c3ccc4c(c3)-n3c(nc(=O)c5c(Cl)cccc53)C4(C)C)cn2)C(C)(C)C)cc1 ; wanted: its DC50
100 to 500 nM

Which value of DC50 has been reported for Cc1ncsc1-c1ccc([C@H](C)NC(=O)[C@@H]2C[C@@H](O)CN2C(=O)[C@@H](NC(=O)[C@H]2CC[C@H](CN3CCC(c4ccc5c(c4)C(C)(C)c4nc(=O)c6c(Cl)cccc6n4-5)CC3)CC2)C(C)(C)C)cc1 in the records?
< 100 nM

Entry Cc1ncsc1-c1ccc([C@H](C)NC(=O)[C@@H]2C[C@@H](O)CN2C(=O)[C@@H](c2cc(OCCCN3CCC(c4ccc5c(c4)-n4c(nc(=O)c6c(Cl)cccc64)C5(C)C)CC3)no2)C(C)C)cc1 has what DC50?
< 100 nM

Look up DC50 for this compound: Cc1ncsc1-c1ccc([C@H](CC(=O)N[C@H]2CC[C@H](CN3CCC(c4ccc5c(c4)-n4c(nc(=O)c6c(Cl)cccc64)C5(C)C)CC3)CC2)NC(=O)[C@@H]2C[C@@H](O)CN2C(=O)[C@@H](NC(=O)C2(F)CC2)C(C)(C)C)cc1
< 100 nM

Requested field: DC50. Item: Cc1ncsc1-c1ccc2c(NC(=O)[C@@H]3C[C@@H](O)CN3C(=O)[C@@H](n3cc([C@H]4CC[C@H](CN5CCC(c6ccc7c(c6)-n6c(nc(=O)c8c(Cl)cccc86)C7(C)C)CC5)CC4)nn3)C(C)(C)C)n[nH]c2c1
100 to 500 nM

# input compound: Cc1ncsc1-c1ccc([C@H](C)NC(=O)[C@@H]2C[C@@H](O)CN2C(=O)[C@H](C(C)C)n2cc(CCCCCN3CCC(c4ccc5c(c4)-n4c(nc(=O)c6c(Cl)cccc64)C5(C)C)CC3)nn2)cc1 ; wanted: its DC50
< 100 nM

For the compound C[C@H](NC(=O)[C@@H]1C[C@@H](O)CN1C(=O)[C@@H](n1cc([C@H]2CC[C@H](CN3CCN(c4ccc5c(c4)-n4c(nc(=O)c6c(Cl)cccc64)C5(C)C)CC3)CC2)nn1)C(C)(C)C)c1ccc(-c2ccnn2C)cc1 , what DC50 is on record?
< 100 nM

So what's the measured DC50 for this one? Cc1ncsc1-c1ccc([C@H](C)NC(=O)[C@@H]2C[C@@H](O)CN2C(=O)[C@@H](c2cc(OCCN3CCC(c4ccc5c(c4)-n4c(nc(=O)c6c(Cl)cccc64)C5(C)C)CC3)no2)C(C)C)cc1
< 100 nM

Please look up its DC50: Cc1ncsc1-c1ccc([C@H](CN2CCOCC2)NC(=O)[C@@H]2C[C@@H](O)CN2C(=O)[C@@H](n2cc([C@H]3CC[C@H](S(=O)(=O)N4CCC(c5ccc6c(c5)-n5c(nc(=O)c7c(Cl)cccc75)C65CCCCC5)CC4)CC3)nn2)C(C)(C)C)cc1
< 100 nM

Record request: DC50 value, item Cc1cc(C(C(=O)N2C[C@H](O)C[C@H]2C(=O)N[C@@H](CN2CCC(N3CCC(c4cccc5c4C(C)(C)c4nc(=O)c6c(Cl)cccc6n4-5)CC3)CC2)c2ccc(-c3scnc3C)cc2)C(C)C)on1 (some centres unmarked)
< 100 nM

----------
# tested-on: SMARCA4 (Homo sapiens, UniProt P51532)
# experiment: HiBiT assay for protein degradation, Hela SMARCA4-HiBiT cells (A series)
# Type: cell-based
# Parameters: fuse HiBiT to the carboxy terminus of SMARCA2 (Promega CS302365) or SMARCA4 (Promega CS3023225); host or cells: HeLa (CRISPR/Cas9 HiBiT knock-in)
# condition-context: Hela SMARCA4-HiBiT cells, 24 hours treatment; read-out: SMARC A4 Hela HiBit Dmax(%)
I'd appreciate it if you could supply Dmax values for the items below.

Need Dmax of Cc1ncsc1-c1ccc([C@H](CCCCN2CCC(c3ccc4c(c3)C3(CCCC3)c3nc(=O)c5c(Cl)cccc5n3-4)CC2)NC(=O)[C@@H]2C[C@@H](O)CN2C(=O)[C@@H](NC(=O)C2(F)CC2)C(C)(C)C)cc1 , thanks.
70 to 90%

Can you share its Dmax? I mean this compound: Cc1ncsc1-c1ccc([C@H](C)NC(=O)[C@@H]2C[C@@H](O)CN2C(=O)[C@@H](n2cc(CCCN3CCC(c4ccc5c(c4)C4(CCCCC4)c4nc(=O)c6c(Br)cccc6n4-5)CC3)nn2)C(C)(C)C)cc1
> 90%

Requested field: Dmax. Item: Cc1ncsc1-c1ccc([C@H](CN2CCC(O)CC2)NC(=O)[C@@H]2C[C@@H](O)CN2C(=O)[C@@H](n2cc([C@H]3CC[C@H](CN4CCC(c5ccc6c(c5)-n5c(nc(=O)c7c(Cl)cccc75)C65CCCCC5)CC4)CC3)nn2)C(C)(C)C)cc1
50 to 69%

Value lookup for Dmax; key = Cc1ncsc1-c1ccc([C@H](C)NC(=O)[C@@H]2C[C@@H](O)CN2C(=O)[C@@H](NC(=O)CN2CCC(c3ccc4c(c3)-n3c(nc(=O)c5c(Cl)cccc53)C43CCCCC3)CC2)C(C)(C)C)cc1
> 90%

Reported Dmax for Cc1ncsc1-c1ccc([C@H](C)NC(=O)[C@@H]2C[C@@H](O)CN2C(=O)[C@@H](NC(=O)C23CCC(CN4CCC(c5ccc6c(c5)-n5c(nc(=O)c7c(Br)cccc75)C65CCCCC5)CC4)(CC2)C3)C(C)(C)C)cc1 : what is it?
70 to 90%

Query (compound): Cc1ncsc1-c1ccc([C@H](C)NC(=O)[C@@H]2C[C@@H](O)CN2C(=O)[C@@H](n2cc(CCCCCCN3CCC(c4ccc5c(c4)C4(CCCCC4)c4nc(=O)c6c(Br)cccc6n4-5)CC3)nn2)C(C)(C)C)cc1 ; field requested: Dmax
> 90%

Reported Dmax, compound Cc1ncsc1-c1ccc([C@H](C)NC(=O)[C@@H]2C[C@@H](O)CN2C(=O)[C@@H](NC(=O)[C@H]2CC[C@H](CN3CC(N4CCC(c5ccc6c(c5)C5(CCCCC5)c5nc(=O)c7c(Cl)cccc7n5-6)CC4)C3)CC2)C(C)(C)C)cc1 : ____
50 to 69%

I would be grateful if you could share the reported Dmax for Cc1ncsc1-c1ccc([C@H](C)NC(=O)[C@@H]2C[C@@H](O)CN2C(=O)[C@@H](n2cc(CN3CCC(c4ccc5c(c4)C4(CCCCC4)c4nc(=O)c6c(Br)cccc6n4-5)CC3)nn2)C(C)(C)C)cc1 .
> 90%
